Experiment: Lipid nanoparticle size by dynamic laser light scattering before and after overnight dialysis
Type: physicochemical
Conditions: intensity weighted diameter, before overnight dialysis; LNP with AD-1661
Protocol: The size of the lipid nanoparticles was measured before and after undergoing dialysis overnight. In general, greater changes in lipid nanoparticle size are indicative of lesser stability. Dynamic laser light scattering was used to determine the lipid nanoparticle size (expressed as the intensity weighted diameter) with a Zetasizer (Malvern Instruments, Inc. of Westborough, Mass.). […]
assayEndpoint: LNPs Size (nm) change: size before dialysis
One number for each entry, in nm.

For each of the compounds below, note its LNPs Size (nm) change: size before dialysis.
1. CC(C)CCC(COC(=O)CCCCCCCCCC(CCCCCCCCCC(=O)OCC(CCC(C)C)C(C)C)OC(=O)CCCN(C)C)C(C)C (centres unmarked)
2. CCCCCCCCCC/C=C\COC(=O)CCCCCCCC(CCCCCCCC(=O)OC/C=C\CCCCCCCCCC)OC(=O)CCCN(C)C
3. CCCCCC/C=C\COC(=O)C(C)CCCCCCC(CCCCCCC(C)C(=O)OC/C=C\CCCCCC)OC(=O)CCCN(C)C (centres unmarked)
4. CCCCCCCC/C=C\COC(=O)CCCCCCCC(CCCCCCCC(=O)OC/C=C\CCCCCCCC)OC(=O)CCCN(C)C

1. 59
2. 68
3. 73
4. 60

====

For each record, write down the corresponding LNPs Size (nm) change: size after dialysis.
test: Lipid nanoparticle size by dynamic laser light scattering before and after overnight dialysis; format: physicochemical; conditions: intensity weighted diameter, after overnight dialysis; LNP with AD-1661
Numbers only, in nm.

For each of the molecules below, note its LNPs Size (nm) change: size after dialysis.
1. CCCCCC/C=C\COC(=O)C(C)CCCCCCC(CCCCCCC(C)C(=O)OC/C=C\CCCCCC)OC(=O)CCCN(C)C (centres unmarked)
2. CCCCCCCCCC/C=C\COC(=O)CCCCCCCC(CCCCCCCC(=O)OC/C=C\CCCCCCCCCC)OC(=O)CCCN(C)C
3. CCCCCCCC/C=C\COC(=O)CCCCCCCC(CCCCCCCC(=O)OC/C=C\CCCCCCCC)OC(=O)CCCN(C)C

77
67
67

Data point: CC(C)CCC(COC(=O)CCCCCCCCCC(CCCCCCCCCC(=O)OCC(CCC(C)C)C(C)C)OC(=O)CCCN(C)C)C(C)C (centres unmarked) ; LNPs Size (nm) change: size after dialysis = 60

====

assay: HPLC retention time of cationic lipid in lipid nanoparticles relative to cholesterol; assay type: physicochemical; conditions: HPLC retention time of lipid in LNP (AD-1661 payload) relative to cholesterol; in min (unit assumed)
assayEndpoint: t(lipid) − t(chol)
One number for each entry.

Example results:
[[record]]
compound = "CCCCCCCC/C=C\\COC(=O)CCCCCCCC(CCCCCCCC(=O)OC/C=C\\CCCCCCCC)OC(=O)CCCN(C)C"
recordedmeasurement = 1.44

[[record]]
compound = "CC(C)CCC(CCOC(=O)CCCCCCCCCC(CCCCCCCCCC(=O)OCCC(CCC(C)C)C(C)C)OC(=O)CCCN(C)C)C(C)C (centres unmarked)"
recordedmeasurement = 2.106

[[record]]
compound = "CCCCCC/C=C\\COC(=O)C(C)CCCCCCC(CCCCCCC(C)C(=O)OC/C=C\\CCCCCC)OC(=O)CCCN(C)C (centres unmarked)"
recordedmeasurement = 0.848

[[record]]
compound = "CCCCCC(CCCCC)CCOC(=O)CCCCCCCCCC(CCCCCCCCCC(=O)OCCC(CCCCC)CCCCC)OC(=O)CCCN(C)C"
recordedmeasurement = 3.178

[[record]]
compound = "CN(C)CCCC(=O)OC(CCCCCCCC/C=C\\CCCCCCCC(=O)OCC(C)(C)C)CCCCCCCC/C=C\\CCCCCCCC(=O)OCC(C)(C)C"
recordedmeasurement = 2.707


For each of the compounds below, note its t(lipid) − t(chol).
1. CC(C)CCC(COC(=O)CCCCCCCCCC(CCCCCCCCCC(=O)OCC(CCC(C)C)C(C)C)OC(=O)CCCN(C)C)C(C)C (centres unmarked)
2. CCCCCC(CCCCC)CCOC(=O)CCCCCCCC(CCCCCCCC(=O)OCCC(CCCCC)CCCCC)OC(=O)CCCN(C)C
3. CCCCCCCCCC/C=C\COC(=O)CCCCCCCC(CCCCCCCC(=O)OC/C=C\CCCCCCCCCC)OC(=O)CCCN(C)C

1. 1.751
2. 2.365
3. 2.219
